# Assay comment: Hemolysis of normal human red blood cells (turbidity at 610 nm)
# Assay type: cell-based
# Measurement context: human, red blood cells; 8 (head: κ M) phlorizin benzylazide; cells 2 hours old, 30 min incubation, approx. 4° C., within 700 sec, n=4
Observation type: hemolysis at 8 µM
The answer consists of two parts: a number and, after it, its unit.

get_value(item= [N-]=[N+]=Nc1ccc(Cc2c(O)cc(O[C@@H]3O[C@H](CO)[C@@H](O)[C@H](O)[C@H]3O)c(C(=O)CCc3ccc(O)cc3)c2O)cc1 [phlorizin benzylazide] , readout=hemolysis at 8 µM) returns 0%

====

# Assay comment: Hemolysis of normal human red blood cells (turbidity at 610 nm)
# Assay type: cell-based
# Measurement context: human, red blood cells; 16 (head: κ M) phlorizin benzylazide; cells 2 hours old, 30 min incubation, approx. 4° C., within 700 sec, n=4
Observation type: hemolysis at 16 µM (%)
Supply the numeric figure in %, leaving out any unit text.

Reported hemolysis at 16 µM ( [N-]=[N+]=Nc1ccc(Cc2c(O)cc(O[C@@H]3O[C@H](CO)[C@@H](O)[C@H](O)[C@H]3O)c(C(=O)CCc3ccc(O)cc3)c2O)cc1 [phlorizin benzylazide] ) = 31
